Data provenance: patent US20130230533A1

# System: T1, Dimeric human CD48-mFc (human)
# T1 construct: the whole entry is the construct; also called hCD48-mFc
# T1 chain: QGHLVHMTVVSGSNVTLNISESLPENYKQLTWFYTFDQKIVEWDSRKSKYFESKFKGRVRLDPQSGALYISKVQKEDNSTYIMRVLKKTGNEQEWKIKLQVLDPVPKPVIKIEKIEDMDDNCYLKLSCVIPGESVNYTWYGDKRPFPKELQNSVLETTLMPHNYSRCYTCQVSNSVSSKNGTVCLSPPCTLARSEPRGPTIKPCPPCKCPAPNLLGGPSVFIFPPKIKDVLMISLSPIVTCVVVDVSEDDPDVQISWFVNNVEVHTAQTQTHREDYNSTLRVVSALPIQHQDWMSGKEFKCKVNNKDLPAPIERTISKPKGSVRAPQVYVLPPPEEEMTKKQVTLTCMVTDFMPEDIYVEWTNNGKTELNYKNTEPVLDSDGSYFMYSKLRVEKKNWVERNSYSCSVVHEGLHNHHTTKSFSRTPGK
# Measurement protocol: SPR (Biacore), antibody captured by anti-Fc, CD48 in solution, 37 C
Quantity name: pKd
Hey, just a heads up that pKd is the negative log base 10 of the concentration in molar.

H4H1772P (antibody, human IgG4, V domains shown, Human IgG4 Fc (H4H)) VH: EVQLVESGGGLVQPGGSLRLSCAASGFTFSSYWMSWVRQAPGKGLEWVANIMRDGSEKYYVDSVKGRFTISRDNAKNSLYLQMNSLRGEDTAVYYCARERGFYTNYGNWFDPWGQGTLVTVSS VL: DIVMTQSPLSLTVTPGESASISCRSSQSLLHSYGYNSLDWYLQKPGQSPQFLIYLVSNRASGVPDRFSGSGSGTDFTLKISRVEAEDVGVYYCMQVLQTPYTFGQGTKLEIK = 10.19
H4H1770P (antibody, human IgG4, V domains shown, Human IgG4 Fc (H4H)) VH: QVQLVQSGAEVKKPGAAVKVSCKASGYTFTAYGISWVRQAPGQGLEWMGWISAYDGDTNNAQKFQGRVTMTTDTSSSTAYMELRSLGSDDTAVYYCARDRYSSSSGYFDYWGQGTLVTVSS VL: DIQMTQSPSSVSASVGDRVTITCRASQDISSWLAWSQQKPGKAPKALIYAASSLQSGVPSRFSGSGSGTDFTLTISSLQPEDFATYYCQQANSFPYTFGQGTKLEIK = 10.86

## Input Given H4H1778P (antibody, human IgG4, V domains shown, Human IgG4 Fc (H4H)) VH: QVQLVESGGGVVQPGRSLRLSCAASGFTFSNYGMHWVRQAPGKGLEWVAVIWYDESSKYYTDSVKGRFTISRDNSQNTLYLQMTSLRAEDTAVYYCARDRWTYSHYFEYWGQGTLVTVSS VL: DIQMTQSPSSVSASVGDRVTITCRASQGISSWVAWYQQKPGKAPKLLIYAASSLQSGVPSRFSGSGSGTDFTLTISSLQPEDFATYYCQQANSFPRTFGQGTKVEIK , state its recorded pKd.
## Output 10.13
